Entry source: patent US9957246B2

assay: In vitro human skin permeation, flow-through diffusion cells; settings: Table 17; 90:8:2 PG:H2O:IPM donor solution; analyte: THC or intact prodrug as applied
Property measured: 24 h cumulative amt (nmol)
One number for each entry, in nmol.

| Compound | Assay value |
| --- | --- |
| CCCCCc1cc(OC(=O)COCCOCCOCCOC)c2c(c1)OC(C)(C)[C@@H]1CCC(C)=C[C@@H]21 [ALL00117] | 3.0 |
| CCCCCc1cc(OC(=O)CN(C)C)c2c(c1)OC(C)(C)[C@@H]1CCC(C)=C[C@@H]21 [ALL00118] | 5.8 |

Kindly give each listed record's 24 h cumulative amt.
1. CCCCCc1cc(O)c2c(c1)OC(C)(C)[C@@H]1CCC(C)=C[C@@H]21 [Δ^9-tetrahydrocannabinol, reference compound]
2. CCCCCc1cc(OC(=O)OC[C@H](O)CO)c2c(c1)OC(C)(C)[C@@H]1CCC(C)=C[C@@H]21 [ALL00126]

Resp:
1: 16.3; 2: 69.7

----------
assay: Plasma stability of prodrugs (bioconversion to parent drug); assay type: in vitro ADME; details: Table 11, 0.1 h
Please go through the items and note down their % Prodrug at time (h).
Answers are plain numbers, in %.

| Compound | % Prodrug at time (h), % |
| --- | --- |
| CCCCCc1cc(OC(=O)OCCOCCOCCOCCOC)c2c(c1)OC(C)(C)[C@@H]1CCC(C)=C[C@@H]21 | 100 |
| CCCCCc1cc(OC(=O)NCCCCN)c2c(c1)OC(C)(C)[C@@H]1CCC(C)=C[C@@H]21 | 97 |
| CCCCCc1cc(OC(=O)C2CCCN2)c2c(c1)OC(C)(C)[C@@H]1CCC(C)=C[C@@H]21 (stereo partly shown) [ALL00125, Δ^9-Tetrahydrocannabinol prolyl ester] | 100 |

Pending compound:
Req: Give the reported value of % Prodrug at time (h) for this record: CCCCCc1cc(OC(=O)C(=O)OCCOCCOCCOCCOC)c2c(c1)OC(C)(C)[C@@H]1CCC(C)=C[C@@H]21
Resp: 0

----------
experiment: Plasma stability of prodrugs (bioconversion to parent drug); type: in vitro ADME; details: Table 11, 24 h
Property measured: % Prodrug at time (h)
Quick note: unit goes after the number.

Please look at the items below and tell me % Prodrug at time (h) for each one, in order.
1. CCCCCc1cc(OC(=O)C2CCCN2)c2c(c1)OC(C)(C)[C@@H]1CCC(C)=C[C@@H]21 (some centres unmarked) [ALL00125, Δ^9-Tetrahydrocannabinol prolyl ester]
2. CCCCCc1cc(OC(=O)NCCCCN)c2c(c1)OC(C)(C)[C@@H]1CCC(C)=C[C@@H]21
3. CCCCCc1cc(OC(=O)CN(C)C)c2c(c1)OC(C)(C)[C@@H]1CCC(C)=C[C@@H]21
4. CCCCCc1cc(OC(=O)CCC(=O)O)c2c(c1)OC(C)(C)[C@@H]1CCC(C)=C[C@@H]21 [ALL00123, Δ^9-Tetrahydrocannabinol hemisuccinate]
5. CCCCCc1cc(OC(=O)C(=O)OCCOCCOCCOCCOC)c2c(c1)OC(C)(C)[C@@H]1CCC(C)=C[C@@H]21
6. CCCCCc1cc(OC(=O)CNC=O)c2c(c1)OC(C)(C)[C@@H]1CCC(C)=C[C@@H]21

Resp:
1: 0%; 2: 71%; 3: 81%; 4: 0%; 5: 0%; 6: 0%

Hi team, please reply with % Prodrug at time (h) for each item in this list.
1. CCCCCc1cc(OC(=O)CN(C)C=O)c2c(c1)OC(C)(C)[C@@H]1CCC(C)=C[C@@H]21
2. CCCCCc1cc(OC(=O)OCCOCCOCCOCCOC)c2c(c1)OC(C)(C)[C@@H]1CCC(C)=C[C@@H]21

Resp:
1. 14%
2. 51%

----------
Record form. Attribute: % Prodrug at time (h). Fill in for each entry.
experiment: Plasma stability of prodrugs (bioconversion to parent drug); assay type: in vitro ADME; conditions: Table 15, 2.5 h
Answers are plain numbers, in %.

Answered examples (3):
| Compound | Uom | Assay value |
| --- | --- | --- |
| CCCCCc1cc(OC(=O)OC[C@H](O)CO)c2c(c1)OC(C)(C)[C@@H]1CCC(C)=C[C@@H]21 [ALL00126] | % | 1 |
| CCCCCc1cc(OC(=O)OCCCCN)c2c(c1)OC(C)(C)[C@@H]1CCC(C)=C[C@@H]21 [ALL00127] | % | 91 |
| CCCCCc1cc(OC(=O)COCCOCCOCCOC)c2c(c1)OC(C)(C)[C@@H]1CCC(C)=C[C@@H]21 [ALL00117] | % | 7 |

# next compound below
Req: Specify % Prodrug at time (h) for CCCCCc1cc(OC(=O)CN(C)C)c2c(c1)OC(C)(C)[C@@H]1CCC(C)=C[C@@H]21 [ALL00118] and stop.
Resp: 81

----------
Give Lag time for every item shown.
experiment: In vitro human skin permeation, flow-through diffusion cells; conditions: Table 17; 90:8:2 PG:H2O:IPM donor solution; analyte: THC or intact prodrug as applied

The examples below pair each entry with its known result.
| Compound | Property measured | Assay value |
| --- | --- | --- |
| CCCCCc1cc(OC(=O)OC[C@H](O)CO)c2c(c1)OC(C)(C)[C@@H]1CCC(C)=C[C@@H]21 [ALL00126] | Lag time | 10.8 ± 2.1 h |
| CCCCCc1cc(OC(=O)COCCOCCOCCOC)c2c(c1)OC(C)(C)[C@@H]1CCC(C)=C[C@@H]21 [ALL00117] | Lag time | 15.1 ± 0.2 h |
| CCCCCc1cc(OC(=O)CN(C)C)c2c(c1)OC(C)(C)[C@@H]1CCC(C)=C[C@@H]21 [ALL00118] | Lag time | 12.8 ± 0.1 h |

--- query ---
Req: Entry CCCCCc1cc(O)c2c(c1)OC(C)(C)[C@@H]1CCC(C)=C[C@@H]21 [Δ^9-tetrahydrocannabinol, reference compound] needs its Lag time filled in; supply it.
Resp: 5.8 ± 5.9 h

----------
assay: Plasma stability of prodrugs (bioconversion to parent drug); assay type: in vitro ADME; conditions: Table 15, 0.1 h
Answer each item with its documented % Prodrug at time (h).
Give bare numbers, in %.

| Record smiles | Assay value |
| --- | --- |
| CCCCCc1cc(OC(=O)COCCOCCOCCOC)c2c(c1)OC(C)(C)[C@@H]1CCC(C)=C[C@@H]21 | 100 |
| CCCCCc1cc(OC(=O)OC[C@@H](O)CO)c2c(c1)OC(C)(C)[C@@H]1CCC(C)=C[C@@H]21 | 30 |

Query molecule follows.
Req: Give the measured % Prodrug at time (h) for CCCCCc1cc(OC(=O)OC[C@H](O)CO)c2c(c1)OC(C)(C)[C@@H]1CCC(C)=C[C@@H]21
Resp: 100

----------
assay: Plasma stability of prodrugs (bioconversion to parent drug); format: in vitro ADME; conditions: Table 11, 1 h
Property measured: % Prodrug at time (h) (%)
Answers are plain numbers, in %.

In the examples that follow, each entry is paired with its recorded % Prodrug at time (h).
| Compound | % Prodrug at time (h) [%] |
| --- | --- |
| CCCCCc1cc(OC(=O)C(=O)OCCOCCOCCOCCOC)c2c(c1)OC(C)(C)[C@@H]1CCC(C)=C[C@@H]21 | 0 |
| CCCCCc1cc(OC(=O)CCC(=O)O)c2c(c1)OC(C)(C)[C@@H]1CCC(C)=C[C@@H]21 [ALL00123, Δ^9-Tetrahydrocannabinol hemisuccinate] | 0 |
| CCCCCc1cc(OC(=O)CN(C)C=O)c2c(c1)OC(C)(C)[C@@H]1CCC(C)=C[C@@H]21 | 50 |
| CCCCCc1cc(OC(=O)NCCCCN)c2c(c1)OC(C)(C)[C@@H]1CCC(C)=C[C@@H]21 | 97 |
| CCCCCc1cc(OC(=O)CNC=O)c2c(c1)OC(C)(C)[C@@H]1CCC(C)=C[C@@H]21 | 8 |
| CCCCCc1cc(OC(=O)CN(C)C)c2c(c1)OC(C)(C)[C@@H]1CCC(C)=C[C@@H]21 | 94 |

Req: Supply recorded % Prodrug at time (h) for CCCCCc1cc(OC(=O)OCCOCCOCCOCCOC)c2c(c1)OC(C)(C)[C@@H]1CCC(C)=C[C@@H]21 here.
Resp: 82

----------
experiment: In vitro human skin permeation, flow-through diffusion cells; conditions: Table 9; 2.36:1.18:1 pH = 5.5 PG:ethanol:H2O donor solution; analyte: THC or intact prodrug as applied
Give measured 24 h skin conc for each item. Keep answers brief.
Report the figure along with its unit, number first.

A selection of reference data follows.
| Compound | 24 h skin conc |
| --- | --- |
| CCCCCc1cc(O)c2c(c1)OC(C)(C)[C@@H]1CCC(C)=C[C@@H]21 [Δ^9-tetrahydrocannabinol, reference compound] | 16.1 ± 0.5 µmol/g |
| CCCCCc1cc(OC(=O)OCCOCCOCCOCCOC)c2c(c1)OC(C)(C)[C@@H]1CCC(C)=C[C@@H]21 [ALL00119] | 13.6 ± 7.5 µmol/g |
| CCCCCc1cc(OC(=O)C(=O)OCCOCCOCCOCCOC)c2c(c1)OC(C)(C)[C@@H]1CCC(C)=C[C@@H]21 [ALL00122] | 52.7 ± 3.2 µmol/g |

Consider the record given below.
Req: Identify measured 24 h skin conc associated with CCCCCc1cc(OC(=O)NCCCCN)c2c(c1)OC(C)(C)[C@@H]1CCC(C)=C[C@@H]21 [ALL00124]
Resp: 17.3 ± 0.4 µmol/g
